I'd be grateful if you could share measured melting point for these entries.
Numbers only; they are read as °C.

Quick note, melting point for `CN1CCN(Cc2ccc(-c3ccc(-c4cn([C@H]5CN6CCC5CC6)nn4)s3)cc2)CC1` landed at 214

Quick note, melting point for `CN1[C@@H]2CC[C@H]1C[C@@H](n1cc(-c3cccc(F)c3)nn1)C2` landed at 124

Quick note, melting point for `c1cc2cc(-c3cn([C@H]4CN5CCC4CC5)nn3)ccc2s1` landed at 178

Quick note, melting point for `COC(=O)c1ccc(-c2ccc(-c3cn([C@H]4CN5CCC4CC5)nn3)s2)cc1Cl` landed at 200

Quick note, melting point for `OCc1ccc(-c2cn([C@H]3CN4CCC3CC4)nn2)cc1` landed at 200

Quick note, melting point for `Clc1ccc(-c2cn([C@H]3CN4CCC3CC4)nn2)cc1Cl` landed at 108

Quick note, melting point for COc1ccc(-n2cc(C3(O)CN4CCC3CC4)nn2)cc1 (stereo not drawn) landed at 174

Quick note, melting point for `Fc1cccc(-c2cn([C@H]3CN4CCC3CC4)nn2)c1` landed at 120

Quick note, melting point for FC1(c2cn(-c3ccc(Br)cc3)nn2)CN2CCC1CC2 (stereo not drawn) landed at 127

Reference for the values: patent US10059704B2
